assay: Displacement of [3H]1,3-ditolylguanine from sigma 2 receptor in rat liver membrane by solid scintillation analysis
Type: cell membranes
Can you tell me Ki for the items I'm about to list?
Number only, in µM; omit the unit.

The compound listed as C=CCN1C[C@H]2/C(=C\c3ccccc3)CC[C@@H]1CN2Cc1ccc(OC)cc1OC shows Ki equal to 0.679

The compound listed as C=CCN1C[C@@H]2[C@H](OCc3ccccc3)CC[C@H]1CN2Cc1ccc(OC)cc1 shows Ki equal to 0.802

The compound listed as C=CCN1C[C@@H]2c3[nH]c4ccccc4c3C[C@H]1CN2Cc1ccc(OC)cc1OC shows Ki equal to 3.35

The compound listed as C=CCN1C[C@@H]2c3nc4ccccc4c(C)c3C[C@H]1CN2Cc1ccc(OC)cc1 shows Ki equal to 5.61

The compound listed as C=CCN1C[C@@H]2/C(=C\c3ccccc3)CC[C@H]1CN2Cc1ccc(OC)cc1OC shows Ki equal to 0.159

The compound listed as C=CCN1C[C@@H]2/C(=C\c3ccccc3)CC[C@H]1CN2Cc1ccc(OC)cc1 shows Ki equal to 0.576

The compound listed as C=CCN1C[C@@H]2[C@H](Oc3ccccc3)CC[C@H]1CN2Cc1ccc(OC)cc1 shows Ki equal to 0.479

The compound listed as C=CCN1C[C@H]2[C@@H](Oc3ccccc3)CC[C@@H]1CN2Cc1ccc(OC)cc1 shows Ki equal to 0.862

The compound listed as C=CCN1C[C@H]2[C@H](OCc3ccccc3)CC[C@@H]1CN2Cc1ccc(OC)cc1 shows Ki equal to 6.46

The compound listed as C=CCN1C[C@H]2c3nc4ccccc4c(C)c3C[C@@H]1CN2Cc1ccc(OC)cc1OC shows Ki equal to 5.61

The compound listed as C=CCN1C[C@H]2c3[nH]c4ccccc4c3C[C@@H]1CN2Cc1ccc(OC)cc1OC shows Ki equal to 3.21

The compound listed as C=CCN1C[C@@H]2[C@@H](OCc3ccccc3)CC[C@H]1CN2Cc1ccc(OC)cc1OC shows Ki equal to 0.588

The compound listed as C=CCN1C[C@H]2[C@@H](OCc3ccccc3)CC[C@@H]1CN2Cc1ccc(OC)cc1OC shows Ki equal to 2.81

The compound listed as C=CCN1C[C@@H]2c3[nH]c4ccc(OC)cc4c3C[C@H]1CN2Cc1ccc(OC)cc1OC shows Ki equal to 9.33
